The entries below come with measured protein stability index values attached.
B1: NET1 (parent)
chain: PTPAKRRSSALWSEMLDITMKESL

variants of: B1; test: protein stability index of a GFP-peptide fusion (GPS, HEK-293T) (PSI 1-6); higher = more stable; conditions: c terminus: a fixed tail appended;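 note: lentivirally expressed fusions sorted by FACS into six bins by GFP to DsRed ratio, PSI derived from sequencing read proportions per bin multiplied by bin number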
Would you mind answering with just the numeric figure?

# mutant_name, parameter, result
measured = [
    ("E14A", "protein stability index", 1.55),
    ("L11D", "protein stability index", 4.29),
    ("P3I", "protein stability index", 2.49),
    ("A4V", "protein stability index", 2.21),
    ("S23Y", "protein stability index", 1.9),
    ("E14P", "protein stability index", 3.15),
    ("A4Q", "protein stability index", 2.57),
    ("L16Q", "protein stability index", 2.92),
    ("L11M", "protein stability index", 2.89),
    ("D17M", "protein stability index", 1.26),
]

Query block: GET /values?readout=protein stability index&item= D17I
Result block: 2.31

Query block: Next up: M15V
Result block: 2.9

Query block: Next up: E14D
Result block: 2.75

Query block: Next up: M15W
Result block: 2.05

Query block: Next up: M15Y
Result block: 1.96

Query block: Next up: T2C
Result block: 1.55

Query block: Next up: A4I
Result block: 1.99

Query block: Next up: S13F
Result block: 1.75

Query block: Next up: L16I
Result block: 2.84

Query block: Next up: L24D
Result block: 2.48

Query block: Next up: R6A
Result block: 3.48

Query block: Next up: S13N
Result block: 2.49
